pKi: −log10 of the molar value.
Human σ1 Receptor (Homo sapiens, UniProt Q99720): reported pKi for various molecules.
Sequence (Q99720 whole entry): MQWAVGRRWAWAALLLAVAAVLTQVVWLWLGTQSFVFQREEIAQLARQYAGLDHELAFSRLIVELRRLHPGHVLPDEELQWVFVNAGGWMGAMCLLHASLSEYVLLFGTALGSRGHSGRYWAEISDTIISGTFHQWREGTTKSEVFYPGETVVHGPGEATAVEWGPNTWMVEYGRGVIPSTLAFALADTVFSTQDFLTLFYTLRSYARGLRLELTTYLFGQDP

# smiles.entry, pKi
records = [
    ("FC(F)(F)c1cc(-c2cnn3cc(CN4CCC5(CC4)COC5)cnc23)ccn1", "> 7.00"),
    ("FC(F)(F)c1cc(-n2ccc3cc(CN4CCC5(CCOC5)CC4)cnc32)ccn1", "> 7.00"),
]

Task: Consider the molecule shown here: FC(F)(F)c1cc(-c2cnn3cc(CN4CCN(C5COC5)CC4)cnc23)ccn1 What is its recorded pKi?
Result: 6.00 to 6.30

Task: Consider next the molecule FC(F)(F)c1ccc(-c2cnn3cc(CN4CCC5(CC4)COC5)cnc23)cn1 in the same way.
Result: > 7.00
